meta.source: PubChem BioAssay (NCI)

# Test system: M14 melanoma
# test protocol: NCI tumour cell line growth inhibition, 48 h
I would appreciate it if you labelled entries Satisfied when TGI is 10 µM or higher, otherwise Not satisfied.

query: # check: TGI of `Nc1c(O)c2c(c(O)c1Cl)C(=O)C=CC2=O` is greater than or equal to 10 µM
result: Not satisfied

query: Form field: TGI at least 10 µM? Entry: C=C1C(=O)OC2C1C(OC(=O)/C(C)=C/C)CC(O)(CCl)C1C(OC(C)=O)C=C(C)C21O (stereo not given)
result: Satisfied

###

# Test system: HCT-116 colon
# test protocol: NCI tumour cell line growth inhibition, 48 h; in the data active means GI50 below about 0.43 µM; inactive means the rest
Please state which outcome applies, choosing from yes for active, no for inactive

Example entries begin here.
O=C1c2cccnc2-c2nc(-c3ccccn3)cc3c2c1nc1ccccc13: yes
O=C(CSc1nc2ccc([N+](=O)[O-])cc2[nH]1)Nc1cccc(C(F)(F)F)c1: no
N.N.NCCCCN.O=C([O-])CC(=O)[O-].O=C([O-])CC(=O)[O-].[Pt+4].[Pt+4]: no
O=C1C(Cl)=C(Oc2ccccc2)C(=O)c2ccccc21: no

query: Query: recorded result category for `C[C@@H](Oc1cc(-c2cnn(C3CCNCC3)c2)cnc1N)c1c(Cl)ccc(F)c1Cl` in this test
result: no

query: // return assay outcome for `COc1cccc2c(Nc3ccc(C(=O)NCCNCCO)cc3)cc(-c3ccccc3)nc12`
result: no

query: Would you mind telling me which call this test gave `CS(=O)(=O)c1ccc(Oc2nccc(-c3c(-c4ccc(F)cc4)ncn3C3CCNCC3)n2)cc1` ?
result: no

query: Test call for this molecule, please: `COC(=O)/C=C1\SC(=Nc2ccc(C(F)(F)F)cc2)N(CCc2c[nH]c3ccccc23)C1=O`
result: no

query: So what was the verdict on `Cc1c(C(=O)CCl)c(=O)n(-c2ccccc2)n1C` in this test?
result: no

query: Outcome logged for `CCOC(=O)c1sc2ncn(Cc3cccc(Cl)c3)c(=O)c2c1C` in this assay:
result: no

###

# Tested on: SF-539 CNS
# test protocol: NCI tumour cell line growth inhibition, 48 h
Entries and their TGI values follow.

The examples below pair each entry with its known result.
O=C(Nc1ccccc1)O/N=C1/CCCC/C1=C\c1ccccc1: 31.7 µM
CCOC(=O)c1csc(NC(=O)CN2CCCCC2)n1: > 100 µM
CCOc1cc(NC(C)=O)ccc1C(=O)NN1C(=O)C(Cl)C1c1ccc(O)c(OC)c1 (stereo unspecified): 26.8 µM
Nc1nc([O-])c([I+]c2ccccc2)c(=O)[nH]1: > 100 µM
O=C(O)C(Cc1ccccc1-c1ccccc1)C(=O)O: > 100 µM

API: the following record is the query input.
query: GET TGI | system: SF-539 CNS | item: Cc1cccc2c1CC(C1OC(=O)c3c(C)cccc31)C2=O (stereo unspecified)
result: > 100 µM

###

# Test system: HL-60(TB) leukemia
# test protocol: NCI tumour cell line growth inhibition, 48 h; in the data active = GI50 below about 0.43 µM; inactive = the rest
# valid calls are True (active), False (inactive); nothing else

Example cases with answers are listed next.
COc1ccc(/C=C\c2cc(OC)c(OC)c(OC)c2)cc1NC(=O)[C@@H](N)CO: True
COc1ccc(/C=C/C(=O)/C=C(/C=C/c2ccc(OC)c(OC)c2)OB(F)F)cc1OC: False
COc1cccc2c(Nc3ccc(C(=O)NCCNCCO)cc3)cc(-c3ccccc3)nc12: False
CC(C)(C)[Si](C)(C)OC1[C@@H](O[Si](C)(C)C(C)(C)C)[C@@H](CNC(=O)NC(=O)NC(=O)CI)O[C@H]1n1cnc2c(NC(=O)Nc3ccccc3)ncnc21 (some centres undefined): True
COc1cc2c3c(n(CCCO)c(=O)c2cc1OC)-c1cc2c(cc1C3=O)OCO2: False
COc1ccc(C(=O)c2cc(OC)c(OC)c(OC)c2)cc1/C=C/C(=O)c1ccc(O)cc1: False

query: GET /call?item= `COc1ccc2c(CN3CCC(CO)CC3)cc3cc4c(cc3c2c1)OCO4` returns the recorded outcome of this test.
result: True

query: Can you look up the reported call for `CN(C)CCCNC(=O)c1cc(NC(=O)c2cc(NC(=O)CCCN3c4ccccc4C=Cc4ccccc43)cn2C)cn1C` for me?
result: False

query: Given `COC(=O)c1ccc(-c2nc3cc(F)c(F)cc3nc2C#N)cc1` , state the outcome it received in this test.
result: False

###

The reader will find reported GI50 values listed item by item below.
# Test system: NCI-H522 lung
# test protocol: NCI tumour cell line growth inhibition, 48 h

Consider the worked cases shown below.
COc1cccc2c(Nc3ccc(C(=O)NCCNCCO)cc3)cc(-c3ccccc3)nc12: 20.3 µM
COc1cc(/C=C2\CC(C)CC3C2=NN(c2ccccc2)C3c2cc(OC)c(OC)c(OC)c2)cc(OC)c1OC (stereo not given): 10.2 µM
O=C(Oc1cccc(Nc2ncnc3ccccc23)c1)c1ccccc1Cl: 7.23 µM
O=P(Oc1ccccc1)(Oc1ccccc1)C(O)c1ccccc1 (stereo not given): 25.4 µM

Now turn to the next molecule.
query: Supply reported GI50 belonging to this molecule: `Cc1c(C(=O)N/N=C/c2ccc(O)cc2)nnn1-c1ccnc2c(C(F)(F)F)cccc12`
result: 49.9 µM

###

# Tested on: CAKI-1 renal
# test protocol: NCI tumour cell line growth inhibition, 48 h
value kind: TGI

COc1c2c(c(OC)c3c(=O)cc(C/C(=N/NC(=O)C[n+]4ccccc4)C(=O)Nc4cc(C)ccc4C)oc13)OCO2: > 100 µM

query: Identify measured TGI corresponding to `N/C(=N\Nc1cccc(Cl)c1)c1cccnc1`
result: > 100 µM

query: Find the measured TGI of CC(C)(C)c1cc(C(C)(C)C)c(P=C(Cl)Cl)c(C(C)(C)C)c1 (stereo not given) and report it.
result: > 100 µM

query: Give the reported TGI for this compound. `NS(=O)(=O)c1ccc(NC(=S)/N=C/c2c(O)c3ccccc3[nH]c2=O)cc1`
result: > 100 µM

query: Given NC(=O)c1csc(C2O[C@@H](COP(=O)(O)OP(=O)(O)OC[C@H]3OC(n4cnc5c(N)ncnc54)[C@H](O)[C@@H]3O)[C@H](O)[C@@H]2O)n1 (stereo not given in full) , respond with its TGI.
result: > 100 µM

query: Entry `O=c1oc2ccccc2cc1-c1ccc([N+](=O)[O-])cc1` needs its TGI filled in; supply it.
result: > 100 µM

###

# Test system: DU-145 prostate
# test protocol: NCI tumour cell line growth inhibition, 48 h
Reported TGI by item:

Below, each entry is followed by its recorded TGI result.
Cc1c(C(=O)CCl)c(=O)n(-c2ccccc2)n1C: 5.36 µM
O=C(CCl)Nc1ccccc1SCc1cc(Cl)cc2c1OCOC2: 29.4 µM
COc1cccc(N2C(=O)CSC2c2c[nH]c3ccccc23)c1 (stereo unspecified): > 100 µM
CC1=NN(c2cccc(Cl)c2)C(=N/c2nc3ccccc3s2)/C1=C\c1ccccc1O: > 100 µM
COC(=O)CC(SCCO)SCCO: > 100 µM

query: Respond only with TGI recorded for `O=C(Nc1ncc([N+](=O)[O-])s1)c1cccc([N+](=O)[O-])c1`
result: > 100 µM

query: Supply recorded TGI for CN(C(=O)C12C3C4C1C1C2C3C41C(=O)O)C(C)(C)C (stereo unspecified) here.
result: > 100 µM

query: Tell me its TGI given `CN(C)Cc1cc(N=Nc2c(Cl)cccc2Cl)ccc1O` as the entry.
result: > 100 µM

query: Give me measured TGI, please, for this molecule: O=C1CC2(CCCc3sccc32)C(=O)N1 (stereo unspecified)
result: > 100 µM

query: Specify TGI for CC(C)(C)c1cc(C(C)(C)C)c(P=C(Cl)Cl)c(C(C)(C)C)c1 (stereo unspecified) and stop.
result: > 100 µM

query: Using known records, supply TGI for `Clc1ccc(Nc2ccnc(NCCNc3ccnc4cc(Cl)ccc34)n2)cc1`
result: 2.97 µM

###

# System: CCRF-CEM leukemia
# test protocol: NCI tumour cell line growth inhibition, 48 h
value kind: GI50

Known results for compounds:
COc1cccc2c(Nc3ccc(C(=O)NCCNCCO)cc3)cc(-c3ccccc3)nc12: 20.2 µM
O=C(Nc1cccc(C2=NCCN2)c1)c1ccc(OCCCOc2ccc(C(=O)Nc3cccc(C4=NCCN4)c3)cc2)cc1: 4 µM
Cc1c2ncccc2c(C)c2c1[nH]c1ccc(O)cc12: 4.65 µM

query: Name the recorded GI50 of the item `Cn1cc(-c2nc(-c3c[nH]c4ncccc34)cs2)c2cc(Cl)ccc21` in your answer.
result: 5.51 µM

query: Check the records and state GI50 for `CCNCCNc1cc(-c2ccc(Cl)cc2)c(C#N)c2nc3ccccc3n12`
result: 0.49 µM

query: Complete the entry with GI50 for `N.N.NCCCCN.O=C([O-])CC(=O)[O-].O=C([O-])CC(=O)[O-].[Pt+4].[Pt+4]`
result: 35.6 µM

query: Indicate its recorded GI50; the compound in question is `COc1ccc(-c2nc3sccn3c2/C=C/C(=O)c2cc(OC)c(OC)c(OC)c2)cc1OC`
result: 2.64 µM

query: Retrieve GI50 measured for COc1cc(/C=C2\CC(C)CC3C2=NN(c2ccccc2)C3c2cc(OC)c(OC)c(OC)c2)cc(OC)c1OC (stereo not drawn) and print it.
result: 7.75 µM

query: Supply measured GI50 of `O=C1C(Cl)=C(Oc2ccccc2)C(=O)c2ccccc21` in your reply.
result: 2.23 µM

query: Entry `C=C1C(=O)O[C@H]2[C@H]1CC/C(COC(=O)/C=C/c1cccnc1)=C\CC[C@@]1(C)O[C@@H]21` needs its GI50 filled in; supply it.
result: 0.338 µM
